# Assayed System: soluble guanylate cyclase (sGC) (Rattus norvegicus, UniProt P20595)
# Construct: made in house; host or cells: Sf9 insect cells (baculovirus)
# Test Protocol: Stimulation of sGC enzyme activity (PPi detection, luciferase)
# Format: biochemical
# Settings: sGC enzyme in vitro
Observable: MEC (minimum effective concentration), activating action at the sGC enzyme (nM)
Response body: numeric value in nM, unit text excluded.

Request: Would you mind telling me what MEC (minimum effective concentration), activating action at the sGC enzyme value was observed for C[C@H]([C@H](C(=O)Nc1cc(CC2(C(=O)O)CC2)ccc1Cl)c1ccc(Cl)cc1)C(F)(F)F ?
Response: 0.7

Request: Would you mind telling me what MEC (minimum effective concentration), activating action at the sGC enzyme value was observed for CCOC(c1ccc(Cl)c(NC(=O)[C@H](c2ccc(Cl)cc2)[C@@H](C)C(F)(F)F)c1)C1(C(=O)O)CC1 (single isomer, unassigned) ?
Response: 0.7

Request: Would you mind telling me what MEC (minimum effective concentration), activating action at the sGC enzyme value was observed for C[C@H]([C@H](C(=O)Nc1cc(CC2(C(=O)O)CC2)ccc1Cl)c1ccc(Cl)c(F)c1)C(F)(F)F ?
Response: 0.6

====

Give Emax for every item shown.
# Assayed System: GAL4-PPARδ (Homo sapiens)
# Construct: PPARδ (amino acids 138-442); expressed in transfected cells
# Sequence (Q03181 138-441 limits assumed): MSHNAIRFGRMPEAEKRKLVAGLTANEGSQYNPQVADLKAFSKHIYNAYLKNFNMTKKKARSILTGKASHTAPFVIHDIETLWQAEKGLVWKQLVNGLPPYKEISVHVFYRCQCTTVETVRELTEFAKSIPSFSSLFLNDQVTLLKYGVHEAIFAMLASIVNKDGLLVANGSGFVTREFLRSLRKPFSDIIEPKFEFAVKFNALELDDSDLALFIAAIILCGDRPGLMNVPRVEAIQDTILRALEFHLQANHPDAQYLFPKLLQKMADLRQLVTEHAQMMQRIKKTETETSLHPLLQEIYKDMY
# Test Protocol: Cellular PPAR transactivation assay, GAL4-PPARδ chimera in CHO-K1 cells
# Assay type: cell-based
# Settings: CHO-K1; maximum effect relative to reference compound (Example 73 of EP 1 452 521-A1 = 100%); read-out: PPARδ efficacy
# Description: A cellular assay is used to test for potentially activating properties of the compounds according to the invention with respect to the three human isoforms of the peroxisome proliferator-activated receptors (PPARα, PPARγ and PPARδ). […]
Response body: numeric value in %, unit text excluded.

Request: Would you mind telling me what Emax value was observed for C[C@H]([C@H](C(=O)Nc1cc(CC2(C(=O)O)CC2)ccc1F)c1ccc(C2CC2)cc1)C(F)(F)F [Example 40] ?
Response: 0

Request: Would you mind telling me what Emax value was observed for COC(c1ccc(Cl)c(NC(=O)[C@H](c2ccc(Cl)cc2)[C@@H](C)C(F)(F)F)c1)C1(C(=O)O)CC1 (single isomer, unassigned; (+)) [Example 89] ?
Response: 0

Request: Would you mind telling me what Emax value was observed for CCCOc1ccc(C(=O)NCc2cc(CC3(C(=O)O)CCCO3)ccc2OCC)c(Cl)c1 (stereo not drawn) [Example 73 of EP 1 452 521-A1, reference compound] ?
Response: 100

====

Give MEC (minimum effective concentration), sGC-activating activity in the CHO reporter cell for every item shown.
# Assayed System: sGC (Rattus norvegicus)
# Construct: expressed in transfected cells; host or cells: CHO reporter cell
# Sequence (P19686 whole entry partner): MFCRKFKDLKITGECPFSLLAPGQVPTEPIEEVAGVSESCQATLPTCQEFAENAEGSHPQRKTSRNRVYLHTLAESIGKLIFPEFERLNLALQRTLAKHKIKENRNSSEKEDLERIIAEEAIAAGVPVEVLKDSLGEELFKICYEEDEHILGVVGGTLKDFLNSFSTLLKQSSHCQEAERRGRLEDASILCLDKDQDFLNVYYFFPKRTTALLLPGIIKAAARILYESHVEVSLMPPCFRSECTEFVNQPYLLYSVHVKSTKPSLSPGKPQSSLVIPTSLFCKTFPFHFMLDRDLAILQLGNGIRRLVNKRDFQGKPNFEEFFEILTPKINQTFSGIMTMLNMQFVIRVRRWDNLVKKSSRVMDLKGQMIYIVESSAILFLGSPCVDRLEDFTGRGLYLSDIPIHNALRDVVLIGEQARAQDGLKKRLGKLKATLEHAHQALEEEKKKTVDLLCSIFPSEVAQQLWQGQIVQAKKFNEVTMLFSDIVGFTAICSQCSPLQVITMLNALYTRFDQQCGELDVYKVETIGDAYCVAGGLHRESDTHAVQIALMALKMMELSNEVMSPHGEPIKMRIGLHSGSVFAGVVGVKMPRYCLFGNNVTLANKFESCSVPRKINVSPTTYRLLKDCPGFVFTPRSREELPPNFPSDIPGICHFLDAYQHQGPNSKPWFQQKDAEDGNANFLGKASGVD
# Sequence (P20595 whole entry): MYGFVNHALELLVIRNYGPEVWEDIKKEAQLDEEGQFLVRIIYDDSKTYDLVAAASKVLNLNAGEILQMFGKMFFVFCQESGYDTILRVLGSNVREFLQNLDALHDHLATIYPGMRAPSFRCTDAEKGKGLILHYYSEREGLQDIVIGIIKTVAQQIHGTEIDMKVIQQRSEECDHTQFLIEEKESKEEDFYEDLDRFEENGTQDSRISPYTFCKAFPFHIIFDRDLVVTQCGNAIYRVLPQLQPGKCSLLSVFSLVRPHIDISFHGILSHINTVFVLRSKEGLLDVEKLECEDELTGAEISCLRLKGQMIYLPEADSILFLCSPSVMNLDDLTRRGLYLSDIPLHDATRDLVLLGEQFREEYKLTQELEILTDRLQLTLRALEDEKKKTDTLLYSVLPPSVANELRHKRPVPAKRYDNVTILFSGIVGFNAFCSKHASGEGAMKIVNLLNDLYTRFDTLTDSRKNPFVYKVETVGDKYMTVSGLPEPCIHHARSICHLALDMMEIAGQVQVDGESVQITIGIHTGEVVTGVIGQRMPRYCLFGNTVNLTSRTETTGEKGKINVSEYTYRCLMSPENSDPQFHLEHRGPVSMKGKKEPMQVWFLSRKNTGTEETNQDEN
# Test Protocol: Action at a recombinant guanylate cyclase reporter cell line (CHO reporter cell)
# Type: cell-based
# Settings: CHO reporter cell in vitro
The answer consists of two parts: a number and, after it, its unit.

Request: Would you mind telling me what MEC (minimum effective concentration), sGC-activating activity in the CHO reporter cell value was observed for COC(c1ccc(Cl)c(NC(=O)[C@H](c2ccc(Cl)cc2)[C@@H](C)C(F)(F)F)c1)C1(C(=O)O)CCC1 (single isomer, unassigned) ?
Response: 3 nM

Request: Would you mind telling me what MEC (minimum effective concentration), sGC-activating activity in the CHO reporter cell value was observed for O=C(Nc1cccc(CC2(C(=O)O)CC2)c1F)C(c1ccc(Cl)cc1)C1CCCC1 (racemic) ?
Response: 30 nM

Request: Would you mind telling me what MEC (minimum effective concentration), sGC-activating activity in the CHO reporter cell value was observed for C[C@H]([C@H](C(=O)Nc1cc(CC2(C(=O)O)CC2)ccc1Cl)c1ccc(Cl)cc1)C(F)(F)F ?
Response: 0.4 nM

Request: Would you mind telling me what MEC (minimum effective concentration), sGC-activating activity in the CHO reporter cell value was observed for CCOC(c1ccc(Cl)c(NC(=O)[C@H](c2ccc(Cl)cc2)[C@@H](C)C(F)(F)F)c1)C1(C(=O)O)CC1 (single isomer, unassigned) ?
Response: 0.3 nM

Request: Would you mind telling me what MEC (minimum effective concentration), sGC-activating activity in the CHO reporter cell value was observed for CC(C)c1ccc([C@@H](C(=O)Nc2cc(CC3(C(=O)O)CC3)ccc2F)[C@@H](C)C(F)(F)F)cc1 ?
Response: 0.1 nM

Request: Would you mind telling me what MEC (minimum effective concentration), sGC-activating activity in the CHO reporter cell value was observed for O=C(Nc1cc(CC2(C(=O)O)CC2)ccc1Cl)C(c1ccc(Cl)cc1)C1CCC(F)(F)C1 (single isomer, unassigned) [Example 73] ?
Response: 1.7 nM

====

# Assayed System: GAL4-PPARγ (Homo sapiens)
# Construct: PPARγ (amino acids 203-506)
# Test Protocol: Cellular PPAR transactivation assay, GAL4-PPARγ chimera in CHO-K1 cells
# Settings: CHO-K1 cells, luciferase reporter, 6 h stimulation
Observable: EC50 (nM)
Response body: numeric value in nM, unit text excluded.

Request: Would you mind telling me what EC50 value was observed for C[C@H]([C@H](C(=O)Nc1cc(CC2(C(=O)O)CC2)ccc1Cl)c1ccc(Cl)cc1F)C(F)(F)F ?
Response: 1900

Request: Would you mind telling me what EC50 value was observed for C[C@H]([C@H](C(=O)Nc1cc(CC2(C(=O)O)CC2)ccc1F)c1ccc(Cl)cc1)C(F)(F)F ?
Response: 1900

Request: Would you mind telling me what EC50 value was observed for C[C@H]([C@H](C(=O)Nc1cc(CC2(C(=O)O)CC2)ccc1F)c1ccc(C2CC2)cc1)C(F)(F)F ?
Response: 120

Request: Would you mind telling me what EC50 value was observed for C[C@H]([C@H](C(=O)Nc1cc(CC2(C(=O)O)CC2(F)F)ccc1Cl)c1ccc(Cl)cc1)C(F)(F)F (single isomer, unassigned; (+)) ?
Response: 460

Request: Would you mind telling me what EC50 value was observed for Cc1ccc(CC2(C(=O)O)CC2)cc1NC(=O)[C@H](c1ccc(Cl)cc1)[C@@H](C)C(F)(F)F ?
Response: 4000

Request: Would you mind telling me what EC50 value was observed for CCCOc1ccc(C(=O)NCc2cc(CC3(C(=O)O)CCCO3)ccc2OCC)c(Cl)c1 (stereo not shown) [Example 73 of EP 1 452 521-A1, reference compound] ?
Response: 8.9

Request: Would you mind telling me what EC50 value was observed for COC(c1ccc(Cl)c(NC(=O)[C@H](c2ccc(Cl)cc2)[C@@H](C)C(F)(F)F)c1)C1(C(=O)O)CCC1 (single isomer, unassigned) ?
Response: 2000

Request: Would you mind telling me what EC50 value was observed for C[C@H]([C@H](C(=O)Nc1cc(CC2(C(=O)O)CC2)ccc1Cl)c1ccc(Cl)c(F)c1)C(F)(F)F ?
Response: 2300

Request: Would you mind telling me what EC50 value was observed for COc1cc([C@@H](C(=O)Nc2cc(CC3(C(=O)O)CC3)ccc2Cl)[C@@H](C)C(F)(F)F)ccc1Cl ?
Response: 1800

====

Give Emax for every item shown.
# Assayed System: GAL4-PPARγ (Homo sapiens, UniProt P37231)
# Construct: PPARγ (amino acids 203-506); expressed in transfected cells
# Sequence (P37231 203-505 limits assumed): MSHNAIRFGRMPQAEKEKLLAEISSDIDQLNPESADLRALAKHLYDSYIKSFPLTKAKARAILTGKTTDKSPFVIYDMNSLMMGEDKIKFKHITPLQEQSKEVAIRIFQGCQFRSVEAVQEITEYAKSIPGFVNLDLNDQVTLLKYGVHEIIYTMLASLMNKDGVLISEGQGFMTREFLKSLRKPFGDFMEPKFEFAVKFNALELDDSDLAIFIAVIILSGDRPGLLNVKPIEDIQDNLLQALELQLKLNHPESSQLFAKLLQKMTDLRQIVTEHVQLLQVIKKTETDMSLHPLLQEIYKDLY
# Test Protocol: Cellular PPAR transactivation assay, GAL4-PPARγ chimera in CHO-K1 cells
# Format: cell-based
# Settings: CHO-K1; maximum effect relative to reference compound (Example 73 of EP 1 452 521-A1 = 100%); read-out: PPARγ efficacy
Response body: numeric value in %, unit text excluded.

Request: Would you mind telling me what Emax value was observed for O=C(Nc1cc(CC2(C(=O)O)CC2)ccc1Cl)C(c1ccc(Cl)cc1)C1CCC(F)(F)C1 (single isomer, unassigned) ?
Response: 0

Request: Would you mind telling me what Emax value was observed for CCOC(c1ccc(Cl)c(NC(=O)[C@H](c2ccc(Cl)cc2)[C@@H](C)C(F)(F)F)c1)C1(C(=O)O)CC1 (single isomer, unassigned) ?
Response: 0

Request: Would you mind telling me what Emax value was observed for C[C@H]([C@H](C(=O)Nc1cc(CC2(C(=O)O)CC2)ccc1F)c1ccc(Cl)cc1)C(F)(F)F ?
Response: 20

src = patent US9018258B2
